- system.tested: UniProtKB P08172
- Sequence (P08172 whole entry): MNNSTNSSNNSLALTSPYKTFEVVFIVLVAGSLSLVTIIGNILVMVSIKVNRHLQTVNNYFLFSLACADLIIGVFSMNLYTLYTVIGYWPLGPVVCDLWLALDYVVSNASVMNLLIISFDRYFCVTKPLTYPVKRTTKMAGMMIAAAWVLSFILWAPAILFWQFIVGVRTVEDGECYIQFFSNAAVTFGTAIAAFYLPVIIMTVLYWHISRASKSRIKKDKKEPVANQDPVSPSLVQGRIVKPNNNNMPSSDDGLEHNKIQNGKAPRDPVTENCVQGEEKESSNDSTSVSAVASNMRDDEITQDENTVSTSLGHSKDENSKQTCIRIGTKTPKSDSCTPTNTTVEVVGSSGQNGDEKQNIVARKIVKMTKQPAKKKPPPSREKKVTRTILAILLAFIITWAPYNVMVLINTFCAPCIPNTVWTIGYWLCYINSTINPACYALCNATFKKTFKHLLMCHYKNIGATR
- Assay type: functional, cell-based
reported.property: AC50

Exam item: For the compound shown here, "O=C1CN=C(c2ccccn2)c2cc(Br)ccc2N1" , give the reported AC50.
Marked response: > 10 µM

Exam item: Then this compound: "Oc1ccc2c(c1)[C@@]13CCCC[C@@]1(O)[C@@H](C2)N(CC1CCC1)CC3"
Marked response: > 30 µM

Exam item: Then this compound: CC(C(=O)O)c1ccc(CC2CCCC2=O)cc1 (stereo not given)
Marked response: > 30 µM

Exam item: Then this compound: "Cc1onc(-c2ccccc2)c1-c1ccc(S(N)(=O)=O)cc1"
Marked response: > 10 µM

// below: AC50 requested for another compound
Exam item: For the compound shown here, CCC(C)C1(CC)C(=O)NC(=O)NC1=O (stereo not given) , give the reported AC50.
Marked response: > 30 µM

* * *

- system.tested: Growth hormone secretagogue receptor type 1 (Homo sapiens, UniProt Q92847); also: assay procedure not described here
- Sequence (Q92847 whole entry): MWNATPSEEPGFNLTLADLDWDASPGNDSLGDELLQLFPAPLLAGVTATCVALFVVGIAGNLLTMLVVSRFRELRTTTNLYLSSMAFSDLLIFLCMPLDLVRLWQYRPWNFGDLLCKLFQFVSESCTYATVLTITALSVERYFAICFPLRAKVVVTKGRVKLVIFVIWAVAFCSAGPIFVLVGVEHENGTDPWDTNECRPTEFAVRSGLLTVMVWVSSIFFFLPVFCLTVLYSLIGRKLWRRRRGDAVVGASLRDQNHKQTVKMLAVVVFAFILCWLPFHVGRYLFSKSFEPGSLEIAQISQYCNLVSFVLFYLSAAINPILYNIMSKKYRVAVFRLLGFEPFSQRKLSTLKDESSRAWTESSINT
reported.property: AC50

Sample records with AC50:
Exam item: For the molecule shown here, CN1C[C@H](C(=O)N[C@]2(C)O[C@@]3(O)[C@@H]4CCCN4C(=O)[C@H](Cc4ccccc4)N3C2=O)C=C2c3cccc4[nH]cc(c34)C[C@H]21 [ERGOTAMINE] , give the reported AC50.
Marked response: > 30 µM

Exam item: Then this molecule: O=C1CN=C(c2ccccc2)c2cc([N+](=O)[O-])ccc2N1 [NITRAZEPAM]
Marked response: > 10 µM

Exam item: Then this molecule: Cc1onc(-c2ccccc2)c1-c1ccc(S(N)(=O)=O)cc1 [VALDECOXIB]
Marked response: > 30 µM

Exam item: Then this molecule: Nc1ccc(S(=O)(=O)Nc2nccs2)cc1 [SULFATHIAZOLE]
Marked response: > 30 µM

Exam item: Then this molecule: OC[C@H]1O[C@@](CO)(O[C@H]2O[C@H](CO)[C@@H](O)[C@H](O)[C@H]2O)[C@@H](O)[C@@H]1O [SUCROSE]
Marked response: > 30 µM

More entries:
Exam item: For the molecule shown here, CCCCCCCCCCCCCCCCCCCCCC(=O)Nc1ccn([C@@H]2O[C@H](CO)[C@@H](O)[C@@H]2O)c(=O)n1 [ENOCITABINE] , give the reported AC50.
Marked response: > 30 µM

Exam item: Then this molecule: CCN(CC)CCNC(=O)c1cc(S(C)(=O)=O)ccc1OC [TIAPRIDE]
Marked response: > 30 µM

Exam item: Then this molecule: CCC(C)C1(CC)C(=O)NC(=O)NC1=O (configuration not stated) [BUTABARBITAL]
Marked response: > 30 µM
